Where do the numbers come from? From patent US7919680B2.

system: C. elegans; assay: Nematicidal activity of fatty acid methyl ester emulsions against C. elegans (Table 2); conditions: 0.003% emulsion, 6 hr
# Percentage of Worm Death 6 hr listing for each entry below

| compound | Percentage of Worm Death 6 hr |
| --- | --- |
| CCCCC/C=C\C/C=C\CCCCCCCC(=O)OC [Linoleic Acid (C18-methyl ester), linoleic acid methyl ester] | 0-5% |
| CCCCCC1OC1C/C=C\CCCCCCCC(=O)OC (stereo in doubt) [Vernolic Acid (C18-methyl ester), vernolic acid methyl ester] | 20% |
| CCCCCCCC/C=C\CCCCCCCC(=O)OC [Oleic Acid (C18-methyl ester), oleic acid methyl ester] | 0-5% |
| CCCCCC[C@@H](O)C/C=C\CCCCCCCC(=O)OC [Ricinoleic Acid (C18-methyl ester), ricinoleic acid methyl ester] | 40% |
| CCCCCCCCC(=O)OC [Nonanoic (C9-methyl ester), pelargonic acid methyl ester] | 50% |

###

test system: C. elegans; experiment: Nematicidal activity of fatty acid methyl ester emulsions against C. elegans (Table 2); settings: 0.1% emulsion, 1 hr

| molecule | readoutUnits | Percentage of Worm Death 1 hr |
| --- | --- | --- |
| CCCCCCCCC(=O)OC | % | 100 |
| CCCCCC[C@@H](O)C/C=C\CCCCCCCC(=O)OC | % | 80 |
| CCCCCC1OC1C/C=C\CCCCCCCC(=O)OC (stereo in doubt) | % | 65 |

###

tested on: C. elegans; assay: Nematicidal activity of fatty acid methyl ester emulsions against C. elegans (Table 2); details: 0.003% emulsion, 24 hr

| compound | systemTested | Percentage of Worm Death 24 hr |
| --- | --- | --- |
| CCCCCCCCC(=O)OC | C. elegans | 50% |
| CCCCCC1OC1C/C=C\CCCCCCCC(=O)OC (stereo in doubt) | C. elegans | 20% |
| CCCCCC[C@@H](O)C/C=C\CCCCCCCC(=O)OC | C. elegans | 40% |
| CCCCC/C=C\C/C=C\CCCCCCCC(=O)OC | C. elegans | 0-5% |
| CCCCCCCC/C=C\CCCCCCCC(=O)OC | C. elegans | 0-5% |
